B1: TPR t1 (parent)
chain: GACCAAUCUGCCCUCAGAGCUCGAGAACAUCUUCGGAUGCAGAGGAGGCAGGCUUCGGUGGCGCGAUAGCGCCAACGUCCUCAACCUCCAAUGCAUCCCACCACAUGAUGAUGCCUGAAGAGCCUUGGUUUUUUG

# Variants of: B1
# assay-comment: polymerase ribozyme fitness, log enrichment relative to wild type (log ratio); higher = more active; in vitro selection for triplet polymerase activity
Using polymerase ribozyme fitness (log ratio) as the sorting value, the categories are c1 = under -4, c2 = from -4 up to -2, c3 = -2 and over

These recorded examples may help you get a feel for the data.
mutation-id: C40U G71U U92A
cat: c1
--
mutation-id: C104A C114G
cat: c2
--
mutation-id: C4A C40U G42C G52U G60A A119U U129A
cat: c1
--
mutation-id: G10A U55G G69C
cat: c3
--
mutation-id: C4U C72A A91G G117C
cat: c1
--
mutation-id: C15U G69C
cat: c2
--
mutation-id: C53G G117C
cat: c2
--
mutation-id: A27G U55A G77C A95C
cat: c1

Exercise: Just checking, what class would you give A24G G71C here?
Solution: c2

Exercise: Hey, which category is C40U A50G in, do you know?
Solution: c3

Exercise: Which bin should I file A16G U92C U129C under?
Solution: c2

Exercise: Each variant maps to one class by polymerase ribozyme fitness (log ratio). Which class for C76U C97U ?
Solution: c3

Exercise: Lab log: G19A U78G A84U C115U A121C — assign polymerase ribozyme fitness (log ratio) category
Solution: c1

Exercise: # bin lookup: classify G61A C73U U78A by its polymerase ribozyme fitness (log ratio)
Solution: c3

Exercise: In plain terms, what class is G63A U116C G127U U133A ?
Solution: c1

Exercise: Category of C70U G71A U130C , please.
Solution: c3

Exercise: Which class is correct for the following variant? C8U U78A G93U C101G C104A C124U
Solution: c2

Exercise: Using the reported polymerase ribozyme fitness (log ratio), which band applies to U129A U132A ?
Solution: c3

Exercise: Would you mind sorting G39A A68G C115G U130A into the appropriate category?
Solution: c1

Exercise: Given C8G C56A G77U C88G U92A G113C G122A C123G , name the class its polymerase ribozyme fitness (log ratio) places it in.
Solution: c2

Exercise: // return the class label for G71A G117C
Solution: c2

Exercise: The entry to classify is G19U G47C C97U C114G ; which class holds it?
Solution: c2
